biological target: STAT5B(N642H) (Homo sapiens, UniProt P51692, N642H); construct: made in house; host or cells: HEK293 (transient transfection), unpurified extract; assay: biochemical; type: binding; details: primary screen, 10 μM; read-out: percent of DMSO vehicle control
Sequence (P51692 whole entry N642H): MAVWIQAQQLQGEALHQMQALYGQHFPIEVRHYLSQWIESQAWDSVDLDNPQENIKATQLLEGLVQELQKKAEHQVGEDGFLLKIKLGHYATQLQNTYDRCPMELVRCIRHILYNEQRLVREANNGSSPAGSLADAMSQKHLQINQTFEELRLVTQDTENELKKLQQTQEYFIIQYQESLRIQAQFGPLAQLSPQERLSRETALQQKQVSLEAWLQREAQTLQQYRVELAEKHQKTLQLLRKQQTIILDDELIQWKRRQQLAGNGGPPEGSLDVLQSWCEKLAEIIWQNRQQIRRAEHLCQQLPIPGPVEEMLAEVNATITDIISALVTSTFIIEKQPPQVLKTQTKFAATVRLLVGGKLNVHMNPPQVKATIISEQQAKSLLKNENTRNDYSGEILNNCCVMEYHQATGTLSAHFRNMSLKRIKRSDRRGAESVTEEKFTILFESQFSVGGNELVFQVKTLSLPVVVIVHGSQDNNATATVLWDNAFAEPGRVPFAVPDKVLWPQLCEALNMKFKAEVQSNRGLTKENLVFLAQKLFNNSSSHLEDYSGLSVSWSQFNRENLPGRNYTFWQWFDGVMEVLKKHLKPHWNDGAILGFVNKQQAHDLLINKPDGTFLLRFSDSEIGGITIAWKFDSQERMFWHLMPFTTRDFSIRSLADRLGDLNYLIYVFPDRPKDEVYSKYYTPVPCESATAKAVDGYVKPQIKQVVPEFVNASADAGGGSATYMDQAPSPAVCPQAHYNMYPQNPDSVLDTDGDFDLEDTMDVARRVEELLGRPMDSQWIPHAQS
MEASURED QUANTITY: remaining activity at 10 µM (%)
The reply should contain only the number, in %.

Here is how some compounds turned out for remaining activity at 10 µM.
COMPOUND	MEASURE UNIT	MEASURED VALUE
O=C(COc1ccc2cc(C(=O)Nc3ccccc3)ccc2c1)NCc1ccc(OP(=O)(O)O)c(OP(=O)(O)O)c1 [Stafib-1]	%	12.5
O=C(CCl)Nc1cccc(CNC(=O)[C@H](Cc2ccc(OP(=O)(O)O)cc2)NC(=O)Cc2ccc(F)cc2)c1 [MN551]	%	76.9
C/C(=C\C(=O)N[C@H](C(=O)N1CCC[C@H]1C(=O)N(c1ccccc1)c1ccc(I)cc1)C(C)(C)C)c1ccc(OP(=O)(O)O)cc1 [STAT6-IN-1]	%	0

Quick check: remaining activity at 10 µM of CC(C)(C)[C@H](NC(=O)/C=C/c1ccc(OP(=O)(O)O)cc1)C(=O)N1CCC[C@H]1C(=O)N(c1ccccc1)c1ccc(I)cc1 [STAT6-IN-3] ?
1.3

###

molecular target: TXK (Homo sapiens); construct: made in house; host or cells: HEK293 (transient transfection), unpurified extract; test: biochemical; assay type: binding; settings: primary screen, 10 μM; read-out: percent of DMSO vehicle control
Sequence (P42681 whole entry): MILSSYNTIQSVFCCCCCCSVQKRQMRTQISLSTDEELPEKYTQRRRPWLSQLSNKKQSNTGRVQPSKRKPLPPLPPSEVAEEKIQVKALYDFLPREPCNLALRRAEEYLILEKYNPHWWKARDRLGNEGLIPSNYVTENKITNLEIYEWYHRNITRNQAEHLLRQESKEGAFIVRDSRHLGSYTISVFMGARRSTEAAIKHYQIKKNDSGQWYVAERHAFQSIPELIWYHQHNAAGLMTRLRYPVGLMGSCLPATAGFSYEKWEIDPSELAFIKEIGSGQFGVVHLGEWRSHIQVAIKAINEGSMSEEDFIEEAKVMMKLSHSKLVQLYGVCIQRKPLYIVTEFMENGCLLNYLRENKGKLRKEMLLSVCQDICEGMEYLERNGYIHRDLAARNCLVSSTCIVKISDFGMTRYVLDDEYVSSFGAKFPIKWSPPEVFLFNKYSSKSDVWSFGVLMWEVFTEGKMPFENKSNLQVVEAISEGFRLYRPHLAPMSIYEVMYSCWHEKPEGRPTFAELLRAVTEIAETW
MEASURED QUANTITY: remaining activity at 10 µM (%)
The reply should contain only the number, in %.

SMILES	MEASURE UNIT	remaining activity at 10 µM
O=C(COc1ccc2cc(C(=O)Nc3ccccc3)ccc2c1)NCc1ccc(OP(=O)(O)O)c(OP(=O)(O)O)c1	%	144

Quick check: remaining activity at 10 µM of O=C(CCl)Nc1cccc(CNC(=O)[C@H](Cc2ccc(OP(=O)(O)O)cc2)NC(=O)Cc2ccc(F)cc2)c1 ?
89.1

Quick check: remaining activity at 10 µM of CC(C)(C)[C@H](NC(=O)/C=C/c1ccc(OP(=O)(O)O)cc1)C(=O)N1CCC[C@H]1C(=O)N(c1ccccc1)c1ccc(I)cc1 ?
85.4

Quick check: remaining activity at 10 µM of C/C(=C\C(=O)N[C@H](C(=O)N1CCC[C@H]1C(=O)N(c1ccccc1)c1ccc(I)cc1)C(C)(C)C)c1ccc(OP(=O)(O)O)cc1 ?
87.1

###

target: LYN (Homo sapiens); construct: the DNA-tagged SH2 domain concentrations used in this study were <0.1 nM; made in house; host or cells: HEK293 (transient transfection, unpurified extract); test: biochemical; assay type: binding; settings: read-out: percent of DMSO vehicle control
Sequence (P07948 129-226 limits assumed): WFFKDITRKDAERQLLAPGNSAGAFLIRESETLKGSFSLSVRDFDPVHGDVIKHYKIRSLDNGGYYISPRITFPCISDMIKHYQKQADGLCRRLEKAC
Non-standard residues stand in square brackets, D forms with d. Residues, ends and D or L forms follow the SMILES beside them. *: point of attachment. pY = N[C@@H](Cc1ccc(OP(=O)(O)O)cc1)C(=O)O; Caffeoyl = O=C(/C=C/c1ccc(O)c(O)c1)*
MEASURED QUANTITY: remaining activity at 10 µM (%)
The reply should contain only the number, in %.

Here is how some compounds turned out for remaining activity at 10 µM.
COMPOUND	MEASURE UNIT	remaining activity at 10 µM
CC(=O)N1CC[C@H]2CC[C@@H](C(=O)N[C@@H](CCC(N)=O)C(=O)NC(c3ccccc3)c3ccccc3)N2C(=O)[C@@H](NC(=O)c2cc3cc(C(F)(F)P(=O)(O)O)ccc3[nH]2)C1 [SI-109]	%	140
CC(=O)N[C@@H](Cc1ccc(CP(=O)(O)O)cc1)C(=O)NC1(C(=O)N[C@@H](CC(N)=O)C(=O)NCCCc2c(O)ccc3ccccc23)CCCCC1 [CGP78850]	%	40
NC(=O)CC[C@H](NC(=O)[C@@H]1CC[C@@H]2CCN(C(=O)CCCCCC#Cc3cccc4c3CN(C3CCC(=O)NC3=O)C4=O)C[C@H](NC(=O)c3cc4cc(C(F)(F)P(=O)(O)O)ccc4[nH]3)C(=O)N21)C(=O)NC(c1ccccc1)c1ccccc1 (stereo partly shown) [SD-36]	%	90.9

As a next step, examine the compound that follows.
// fetch LYN (Homo sapiens) remaining activity at 10 µM for CC[C@H](C)[C@H](NC(=O)[C@H](CCC(=O)O)NC(=O)[C@H](CCC(=O)O)NC(=O)[C@H](Cc1ccc(OP(=O)(O)O)cc1)NC(=O)/C=C/c1ccc(O)c(O)c1)C(=O)N[C@@H](CCC(=O)O)C(=O)O [Caffeic acid-pYEEIE] (Caffeoyl-[pY]EEIE-OH)
0

FYI, the data here is from paper PMC12951562.
